Origin of the recorded values: PubChem BioAssay AID2305

tested on: P. falciparum 3D7 growth, pLDH absorbance; assay: blood-stage malaria parasite growth potency – strain 3D7, dose response (AID 2305)
pIC50: −log10 of the molar value.
assay-endpoint: pIC50

1) Cc1nc(-c2ccc(-c3ccc(NC(=O)Nc4ccc(I)c(OCCN(C)C)c4)cc3)c(C)c2)no1; 6.43
2) CCOC(=O)CCCN1C(=O)CN=C(c2ccccc2)c2cc(Cl)ccc21; 6.11
3) COc1cccc(CN(C(=O)Nc2ccccc2F)[C@H]2C[C@H]3C(=O)Nc4cc(F)ccc4C(=O)N3C2)c1; 6.08
4) CCN(CC)CCCC(C)Nc1ccnc2cc(C#N)ccc12 (configuration not stated); 6.85
5) NC(=O)c1cnc2cc(-c3ccoc3)ccc2c1Nc1ccc(NC(=O)Nc2ccccc2Cl)cc1; 6.27
6) O=C(NCc1ccc(Cl)c(Cl)c1)c1ccc(-c2nc3ccc(F)cc3[nH]2)cc1; 5.99
7) O=C(CC1SC(N2N=C(c3cccs3)CC2c2ccccc2)=NC1=O)Nc1ccccc1F (configuration not stated); 5.96
8) Cc1cccc(NC(=O)c2ccc(C(=O)NC3CCN(CC4CCCCC4)C3)cc2)c1 (configuration not stated); 6.04
9) CN(CCC(CCN1CCC(c2c[nH]c3ccccc23)CC1)c1ccccc1)C(=O)Nc1ccc(Cl)c(Cl)c1 (configuration not stated); 5.92
10) COc1cc(Cc2cnc(N)nc2N)cc(CC(C)O)c1O (configuration not stated); 6.08
11) CC(C)CCN=C(N)Nc1ccc(OCCCCCOc2ccc(NC(N)=NCCC(C)C)cc2)cc1; 5.97
12) Cc1cc(CNCCCCCCCNCc2ccc(-c3ccccc3)cc2)ccc1O; 6.31
13) C=CCOC(=O)O[C@@H]1[C@@H](OC(=O)OCC=C)[C@@H](OC)O[C@H](COC(c2ccccc2)(c2ccccc2)c2ccccc2)[C@H]1OC(=O)OCC=C; 6.05
14) COc1ccc(OC)c(C(O)CNC(C)C)c1 (configuration not stated); 7.22
15) Cn1cnc2c(SCc3ccccc3OCc3ccccc3)ncnc21; 6.04
16) COc1ccc2nccc([C@@H](O)CN3CCC(NS(=O)(=O)c4cc5c(cc4Cl)SCC(=O)N5)CC3)c2c1; 6.01
17) CCCCNCc1cc(Cl)c2ccccc2c1O; 6.34
18) O=C(NC(CCCN1CCC(c2ccccc2)CC1)c1ccc(Cl)c(Cl)c1)c1cc(C(F)(F)F)cc(C(F)(F)F)c1 (configuration not stated); 6.07
19) O=C(Nc1ccccc1)N(Cc1cccc(-c2cccc(CNCCc3ccccc3)c2)c1)C1CCN(Cc2ccccc2)CC1; 6.51
20) CCCNC(=O)C1CCN(C(c2ccc(Cl)cc2)c2ccc(Cl)cc2)CC1; 6.32
21) Nc1nccc2ccc(-c3ccnc(NCc4cccnc4)n3)cc12; 6.34
22) Cn1cc(CN2CCCC(COC(c3ccccc3)c3ccccc3)C2)cn1 (configuration not stated); 6.11

---

tested on: P. falciparum 3D7 growth, pLDH absorbance; experiment: blood-stage malaria parasite growth potency – strain 3D7, dose response (AID 2305)
The label Fulfilled is reserved for IC50 strictly under 600 nM; Not fulfilled covers values equal to or above it.

1. NC(=NCCc1ccc(Cl)c(Cl)c1)c1ccc2ccccc2c1; Fulfilled
2. CC(C)c1cn2c3c(cc(C(=O)N[C@@H](Cc4ccccc4)[C@H](O)CNC4CCOCC4)cc13)N(C)S(=O)(=O)CC2; Fulfilled
3. CC(C)COc1ccc(Cl)cc1Cc1ccc(-c2nc3ccc(CCN4CCCC4)cc3[nH]2)o1; Not fulfilled
4. Cc1cccc2[nH]c(-c3ccc(-c4ccc(CN5CCN(c6ccc(C#N)cn6)CC5)cc4)s3)nc12; Not fulfilled
5. CC1CCCN(C(=O)c2cc(-c3ccccn3)nc3c(Cl)cccc23)C1 (configuration not stated); Not fulfilled
6. N#Cc1c(N2CCCCCC2)nc(N)c2c(N)nc3c(c12)CC(=O)N3c1ccc(F)cc1; Fulfilled

---

system: P. falciparum 3D7 growth, pLDH absorbance; assay: blood-stage malaria parasite growth potency – strain 3D7, dose response (AID 2305)
pIC50: −log10 of the molar value.
Property: pIC50; scope: individual molecules
assay-endpoint: pIC50

1) CCC(=O)N1CCc2cc(Br)cc(S(=O)(=O)N3CC(C)CC(C)C3)c21 (centres undefined); 6.03
2) CO/C(=C\C=C\c1cc2cc(Cl)c(Cl)cc2[nH]1)C(=O)NCCCN1CCCC[C@@H]1C; 6.12
3) CCOc1cc(Cc2cnc(N)nc2N)cc(OC)c1OC; 6.04
4) COc1cccc(C(=O)Nc2ccc(S(=O)(=O)c3cc4c(cc3OC)CCN(C)CC4)cc2)c1; 5.96

---

tested on: P. falciparum 3D7 growth, pLDH absorbance; test: blood-stage malaria parasite growth potency – strain 3D7, dose response (AID 2305)
assay-endpoint: IC50 (nM)

1) Cn1cncc1CCN(Cc1ccc(-c2ccc(C(F)(F)F)cc2)cc1)C(=O)Cn1c(CCc2cccc(F)c2F)cc(=O)c2cccnc21; 850
2) O=c1cc(NCCC(CNCc2ccoc2)NCc2cc(Br)cc(Br)c2)[nH]c2ccccc12 (stereo unspecified); 910
3) c1cncc(CCNCc2cccc(-c3ccc(-c4nc5ccccc5[nH]4)s3)c2)c1; 200
4) O=C(NCC1CCN(Cc2cccc(C(F)(F)F)c2)C1)c1cc(-c2cccc(F)c2)cs1 (stereo unspecified); 1180
5) Fc1cc(Cl)ccc1Nc1ccnc2cc(-c3scnc3CNCCN3CCOCC3)ccc12; 850
6) Cc1[nH]c2ccccc2c1C(=O)C(C)Sc1nnc(-c2ccccc2F)o1 (stereo unspecified); 690

---

tested on: P. falciparum 3D7 growth, pLDH absorbance; test: blood-stage malaria parasite growth potency – strain 3D7, dose response (AID 2305)
Please assign 0 (no) whenever IC50 is at or above 700 nM, and 1 (yes) whenever it is below.

1) O=C(Nc1ccc(-c2nc3ccccc3[nH]2)cc1)c1ccc(Cl)c([N+](=O)[O-])c1; 0 (no)
2) O=C(/C=C/C=C/c1ccccc1)NCCCCCN1CCC(c2c[nH]c3ccccc23)CC1; 0 (no)
3) O=C(Nc1ccc(-c2nc3ccccc3[nH]2)cc1)c1ccc(S(=O)(=O)N2CCc3ccccc32)cc1; 0 (no)
4) COc1ccc(NC(=O)CCNc2cc(C)nc(NCCc3ccccc3)n2)cc1; 0 (no)
5) COc1ccc2nc(C)cc(NN=Cc3cccc(F)c3)c2c1; 1 (yes)
6) O=C(Nc1cccc(C(F)(F)F)c1)c1cccc2[nH]c(C(F)(F)F)nc12; 1 (yes)
7) CCc1cccc(NC(=O)/C=C/c2ccc3c(c2)CN(C)CC3)c1; 0 (no)
8) COc1cc2c(cc1OC)-c1cc(=Nc3c(C)cc(C)cc3C)n(C)c(=O)n1CC2; 0 (no)
9) COc1cc2nccc(Nc3ccc(OCc4ccccc4)cc3)c2cc1OC; 1 (yes)
10) COc1cc(NCCCNC(=O)c2cc3c(Cl)cc(Cl)cc3[nH]2)nc2ccccc12; 1 (yes)
11) CCCNCc1ccc(-c2ccc(CN(CCOC)C(=O)c3nn(-c4ccccc4)nc3C)cc2)nc1; 0 (no)
12) COc1cccc(OC)c1-c1ccccc1NC(=O)N1CCCc2cc(C)ccc21; 0 (no)
13) COc1ccccc1Nc1nc(C)cc(NCc2ccc(-n3ccnc3)cc2)n1; 0 (no)
14) OC(CNCc1ccccc1OCc1ccccc1)c1cc(C(F)(F)F)cc(C(F)(F)F)c1 (stereo not given); 1 (yes)
15) Cc1cccc2[nH]c(-c3ccc(-c4cccc(CNCCc5ccncc5)c4)cc3)nc12; 1 (yes)
16) CCCCC(CCCC)CN1C(=O)C(c2ccccc2)(c2ccccc2)N=C1N; 1 (yes)
17) COc1ccc(CN2CCC(CNCCc3c(Cl)cccc3Cl)CC2)cc1; 1 (yes)
18) CN(CCCCCN1CCC(NC(=O)Nc2ccc(Oc3ccccc3)cc2)C1)C(=O)/C=C/c1ccc(Cl)c(Cl)c1 (stereo not given); 1 (yes)
19) CCCCOc1cc(OC)c2ccccc2c1CCNCCCCNCCc1c(OCCCC)cc(OC)c2ccccc12; 0 (no)
20) COc1cccc(CNC[C@@H](O)[C@H](Cc2ccccc2)NC(=O)c2cc(N3CCCC3=O)c3[nH]cc(C(C)C)c3c2)c1; 1 (yes)
21) CC(C)(C)c1ccc2nc(-c3ccc(/C=C/C(=O)NCc4ccc(Cl)c(Cl)c4)cc3)[nH]c2c1; 1 (yes)
22) O=C(Nc1ccsc1)Nc1cccc(-c2cccc(-c3nc4ccc(F)cc4[nH]3)c2)c1; 1 (yes)
23) CC[C@@]1(O)C(=O)OCc2c1cc1n(c2=O)Cc2c-1nc1cc3c(cc1c2CN1CCN(C)CC1)OCCO3; 1 (yes)
24) O=C(NCCc1ccccc1)N(Cc1cccc(-c2ccc(CNCc3ccc4c(c3)OCO4)cc2)c1)C1CCN(Cc2ccccc2)CC1; 1 (yes)
25) Cc1nnsc1C(=O)Nc1cccc(-c2ccc(-c3nc4ccccc4[nH]3)s2)c1; 0 (no)
26) CCCCCCN1CCCN(Cc2ccc(C(=O)Nc3ccc(Cl)cc3)cc2)CC1; 0 (no)
27) COc1ccc(Cn2c(Nc3cccc(C(F)(F)F)c3)nc3cc(C(=O)NCCCN(C)C)ccc32)cc1Cl; 0 (no)
28) O=c1cc(NCCCCNCc2cccc(Br)c2)[nH]c2ccccc12; 0 (no)
29) CN(C)CC1c2[nH]c3ccccc3c2CCN1C(=O)Nc1ccc(Cl)c(Cl)c1 (stereo not given); 0 (no)
30) O=c1cc(NCCCNC2CCOc3c(Cl)cccc32)[nH]c2ccccc12 (stereo not given); 0 (no)
31) CN1CCCC1CCNCc1cccc(-c2cnc(N3CCCC(C)(C)C3)nc2)c1 (stereo not given); 0 (no)
32) CN1CCN(CCCNCc2cccc(-c3ccc(CNCCc4ccccc4)cc3)c2)CC1; 0 (no)
33) Cc1cc2c3c(N)nc(N)nc3ccc2n1C(C)C; 1 (yes)
34) CC(CN=C(N)c1cccc(C(N)=NCC(C)Oc2cccc(C3CCCCC3)c2)n1)Oc1cccc(C2CCCCC2)c1 (stereo not given); 0 (no)
